Provenance of the data: ChEMBL document CHEMBL1629506

Tested on: BT-549
Assay: Growth inhibition of human BT549 cells after 48 hrs by sulforhodamine B assay
Assay type: functional
Settings: BT-549, 48 h
assay.metric: log10 GI50 (log10 of the value in µM)
All values: log10 GI50 [µM].

N#Cc1c(-c2nnc(-c3ccccc3)c3nn(-c4ccc(Cl)cc4)cc23)nn(-c2ccccc2)c1-c1ccccc1: 1.59
N#Cc1c(C(=O)c2cn(-c3ccc(Cl)cc3)nc2C(=O)Nc2ccccc2)nn(-c2ccccc2)c1-c1ccccc1: 1.07
Cc1nnc(-c2nn(-c3ccccc3)c(-c3ccccc3)c2C#N)c2cn(-c3ccccc3)nc12: 1.99

# batch size: 3; output log10 GI50 per entry
1. N#Cc1c(-c2nnc(-c3ccccc3)c3cn(-c4ccccc4)nc23)nn(-c2ccccc2)c1-c1ccccc1
2. CCOC(=O)c1nn(-c2ccccc2)cc1C(=O)c1nn(-c2ccccc2)c(-c2ccccc2)c1C#N
3. N#Cc1c(C(=O)c2cn(-c3ccccc3)nc2-c2ccccc2)nn(-c2ccccc2)c1-c1ccccc1

**A:**
1. 1.34
2. 1.50
3. 0.05

###

System: OVCAR-3
Test: Growth inhibition of human OVCAR3 cells after 48 hrs by sulforhodamine B assay
Format: functional
Conditions: OVCAR-3, 48 h
Labels assigned by GI50 range: low group = under 20 µM, middle group = from 20 µM up to 90 µM, high group = 90 µM and over

// below: answered compounds
N#Cc1c(-c2nnc(O)c3nn(-c4ccccc4)cc23)nn(-c2ccccc2)c1-c1ccccc1: high group
Cc1nnc(-c2nn(-c3ccccc3)c(-c3ccccc3)c2C#N)c2cn(-c3ccccc3)nc12: high group
Cc1ccc(-n2cc(C(=O)c3nn(-c4ccccc4)c(-c4ccccc4)c3C#N)c(C(=O)c3nn(-c4ccccc4)c(-c4ccccc4)c3C#N)n2)cc1: high group
N#Cc1c(-c2nnc(-c3ccccc3)c3nn(-c4ccc(Cl)cc4)cc23)nn(-c2ccccc2)c1-c1ccccc1: high group
N#Cc1c(C(=O)/C=C/N2CCOCC2)nn(-c2ccccc2)c1-c1ccccc1: middle group

**Q:** Assign a category based on measured GI50 for `N#Cc1c(C(=O)c2cn(-c3ccc(Cl)cc3)nc2C(=O)Nc2ccccc2)nn(-c2ccccc2)c1-c1ccccc1` and give only the class name.
**A:** middle group

**Q:** Assign a category based on measured GI50 for `N#Cc1c(C(=O)c2cn(-c3ccccc3)nc2-c2ccccc2)nn(-c2ccccc2)c1-c1ccccc1` and give only the class name.
**A:** low group

**Q:** Assign a category based on measured GI50 for `N#Cc1c(-c2nnc(-c3ccccc3)c3cn(-c4ccccc4)nc23)nn(-c2ccccc2)c1-c1ccccc1` and give only the class name.
**A:** high group

**Q:** Assign a category based on measured GI50 for `Cc1ccc(-n2cc(C(=O)c3nn(-c4ccccc4)c(-c4ccccc4)c3C#N)c(C(=O)Nc3ccccc3)n2)cc1` and give only the class name.
**A:** low group

**Q:** Assign a category based on measured GI50 for `CC(=O)c1nn(-c2ccccc2)cc1C(=O)c1nn(-c2ccccc2)c(-c2ccccc2)c1C#N` and give only the class name.
**A:** middle group

**Q:** Assign a category based on measured GI50 for `CCOC(=O)c1nn(-c2ccc(Cl)cc2)cc1C(=O)c1nn(-c2ccccc2)c(-c2ccccc2)c1C#N` and give only the class name.
**A:** high group

**Q:** Assign a category based on measured GI50 for `N#Cc1c(-c2nnc(-c3nn(-c4ccccc4)c(-c4ccccc4)c3C#N)c3nn(-c4ccccc4)cc23)nn(-c2ccccc2)c1-c1ccccc1` and give only the class name.
**A:** low group

###

Test system: BT-549
Assay: Growth inhibition of human BT549 cells after 48 hrs by sulforhodamine B assay
Format: functional
Details: BT-549, 48 h
I'd be grateful if you could share measured log10 GI50 for these entries.
All values: log10 GI50 [µM].

Worked set:
N#Cc1c(C(=O)/C=C/N2CCOCC2)nn(-c2ccccc2)c1-c1ccccc1: 1.62
N#Cc1c(-c2nnc(-c3nn(-c4ccccc4)c(-c4ccccc4)c3C#N)c3nn(-c4ccc(Cl)cc4)cc23)nn(-c2ccccc2)c1-c1ccccc1: 0.01
Cc1ccc(-n2cc(C(=O)c3nn(-c4ccccc4)c(-c4ccccc4)c3C#N)c(C(=O)c3nn(-c4ccccc4)c(-c4ccccc4)c3C#N)n2)cc1: 0.39
CCOC(=O)c1nn(-c2ccc(Cl)cc2)cc1C(=O)c1nn(-c2ccccc2)c(-c2ccccc2)c1C#N: 1.60
CN(C)/C=C/C(=O)c1nn(-c2ccccc2)c(-c2ccccc2)c1C#N: 1.49

# batch size: 3; output log10 GI50 per entry
1. N#Cc1c(-c2nnc(O)c3nn(-c4ccccc4)cc23)nn(-c2ccccc2)c1-c1ccccc1
2. N#Cc1ccc(C(c2ccc(C#N)cc2)n2cncn2)cc1 [LETROZOLE]
3. N#Cc1c(-c2nnc(-c3nn(-c4ccccc4)c(-c4ccccc4)c3C#N)c3nn(-c4ccccc4)cc23)nn(-c2ccccc2)c1-c1ccccc1

**A:**
[1.65, -0.05, 1.07]

###

System: T47D
Test: Growth inhibition of human T47D cells after 48 hrs by sulforhodamine B assay
Type: functional
# note: exactly 40 µM is not below, so it is n; use y for GI50 strictly under it

**Q:** Given `Cc1nnc(-c2nn(-c3ccccc3)c(-c3ccccc3)c2C#N)c2cn(-c3ccccc3)nc12` , is recorded GI50 strictly lower than 40 µM?
**A:** y

**Q:** Given `Cc1ccc(-n2cc(C(=O)c3nn(-c4ccccc4)c(-c4ccccc4)c3C#N)c(C(=O)Nc3ccccc3)n2)cc1` , is recorded GI50 strictly lower than 40 µM?
**A:** y

**Q:** Given `CN(C)/C=C/C(=O)c1nn(-c2ccccc2)c(-c2ccccc2)c1C#N` , is recorded GI50 strictly lower than 40 µM?
**A:** y

**Q:** Given `N#Cc1c(-c2nnc(O)c3nn(-c4ccc(Cl)cc4)cc23)nn(-c2ccccc2)c1-c1ccccc1` , is recorded GI50 strictly lower than 40 µM?
**A:** n

**Q:** Given `N#Cc1c(C(=O)/C=C/N2CCOCC2)nn(-c2ccccc2)c1-c1ccccc1` , is recorded GI50 strictly lower than 40 µM?
**A:** n

**Q:** Given `N#Cc1c(-c2nnc(-c3ccccc3)c3nn(-c4ccc(Cl)cc4)cc23)nn(-c2ccccc2)c1-c1ccccc1` , is recorded GI50 strictly lower than 40 µM?
**A:** y

**Q:** Given `CCOC(=O)c1nn(-c2ccccc2)cc1C(=O)c1nn(-c2ccccc2)c(-c2ccccc2)c1C#N` , is recorded GI50 strictly lower than 40 µM?
**A:** n

###

Test system: Rattus norvegicus
Assay: Antiestrogenic activity in Sprague-Dawley rat assessed as reduction in estradiol induced uterine weight upto 0.06 ug, po after 8 days
Type: functional
Parameters: scale not given: the % may be the effect or the level left
I'd be grateful if you could share measured Activity for these entries.
Numbers only, in %.

N#Cc1c(C(=O)c2cn(-c3ccc(Cl)cc3)nc2C(=O)Nc2ccccc2)nn(-c2ccccc2)c1-c1ccccc1: 34.87
Cc1ccc(-n2cc(C(=O)c3nn(-c4ccccc4)c(-c4ccccc4)c3C#N)c(C(=O)c3nn(-c4ccccc4)c(-c4ccccc4)c3C#N)n2)cc1: 32.43
CN(C)/C=C/C(=O)c1nn(-c2ccccc2)c(-c2ccccc2)c1C#N: 41.98
CC(=O)c1nn(-c2ccccc2)cc1C(=O)c1nn(-c2ccccc2)c(-c2ccccc2)c1C#N: 32.45
N#Cc1c(-c2nnc(-c3ccccc3)c3cn(-c4ccccc4)nc23)nn(-c2ccccc2)c1-c1ccccc1: 32.59
Cc1ccc(-n2cc(C(=O)c3nn(-c4ccccc4)c(-c4ccccc4)c3C#N)c(C(=O)Nc3ccccc3)n2)cc1: 34.65
N#Cc1c(C(=O)/C=C/N2CCOCC2)nn(-c2ccccc2)c1-c1ccccc1: 43.43

// switching to the query compound
**Q:** For the compound shown here, `N#Cc1c(-c2nnc(-c3nn(-c4ccccc4)c(-c4ccccc4)c3C#N)c3nn(-c4ccc(Cl)cc4)cc23)nn(-c2ccccc2)c1-c1ccccc1` , give the reported Activity.
**A:** 43.41

###

System: Rattus norvegicus
Assay: Antiestrogenic activity in Sprague-Dawley rat assessed as reduction in estradiol induced uterine weight 0.06 ug, po after 8 days relative to letrozole
Type: functional
assay.metric: potency ratio vs letrozole

Worked set:
CC(=O)c1nn(-c2ccccc2)cc1C(=O)c1nn(-c2ccccc2)c(-c2ccccc2)c1C#N: 1.49
N#Cc1c(C(=O)c2cn(-c3ccc(Cl)cc3)nc2C(=O)Nc2ccccc2)nn(-c2ccccc2)c1-c1ccccc1: 1.61
Cc1nnc(-c2nn(-c3ccccc3)c(-c3ccccc3)c2C#N)c2cn(-c3ccccc3)nc12: 1.1
CCOC(=O)c1nn(-c2ccc(C)cc2)cc1C(=O)c1nn(-c2ccccc2)c(-c2ccccc2)c1C#N: 1.96
N#Cc1c(-c2nnc(O)c3nn(-c4ccc(Cl)cc4)cc23)nn(-c2ccccc2)c1-c1ccccc1: 1.09

# batch size: 2; output potency ratio vs letrozole per entry
1. CN(C)/C=C/C(=O)c1nn(-c2ccccc2)c(-c2ccccc2)c1C#N
2. Cc1ccc(-n2cc(C(=O)c3nn(-c4ccccc4)c(-c4ccccc4)c3C#N)c(C(=O)c3nn(-c4ccccc4)c(-c4ccccc4)c3C#N)n2)cc1

**A:**
1: 1.93; 2: 1.49

**Q:** For the molecule shown here, `N#Cc1c(C(=O)/C=C/N2CCOCC2)nn(-c2ccccc2)c1-c1ccccc1` , give the reported potency ratio vs letrozole.
**A:** 2
